Each recorded value in this set is attributed to the supplement of paper PMC6555819.

Reported PBM binding z-score by item:
tested on: THRa homodimer (NR concentration 90 nM); assay: PBM binding z-score (relative to random genomic background probes); higher = stronger binding; sequences stand for … in GC…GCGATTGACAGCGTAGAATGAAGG

Sequence Text: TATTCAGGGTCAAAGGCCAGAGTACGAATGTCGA
PBM binding z-score: 1.25

Sequence Text: CAAACTAGGTCACTAAAGGTCAAAGTCGAATGAC
PBM binding z-score: 2.19

Sequence Text: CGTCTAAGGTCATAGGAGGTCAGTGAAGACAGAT
PBM binding z-score: 4.81

Sequence Text: ATATGTAGGTTAGGGTCAGTCAGAAAGTAGGGAA
PBM binding z-score: 2.69
